# Tested on: RXRa DBDmut IVT, anti-RXR (DBD mutation: RXRa K156A/R161A, NR concentration 90 nM)
# Test protocol: PBM binding z-score (relative to random genomic background probes); higher = stronger binding; sequences stand for … in GC…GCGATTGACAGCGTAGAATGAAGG
Property label: PBM binding z-score
Respond using a number only.

CAAAGTAGGTCAAGGTCAAAGTCGGTTTGTGCCA    3.29
AGAATGAGGTTACCAGAGATCAGGGAAACGCTTG    1.1
CGAACTAAGTCACCAGGACAGTGAAGAGGTTGGA    0.000632
CGAGCTAGGTCACCAGGACAGTGAAGAGGTTGGA    1.24
CAGCCTAGTTCAGGGCCAGTATAGGAGGAACGTT    0.532

Q: Read the entry "CTATGTTGGTTAAGGGGGTCATTCAGTTTGAAAG" and write its reported PBM binding z-score.
A: 2.63

Q: Read the entry "CGTCCAAGGTCAATGCGAGGTCAGTGAAAGCATT" and write its reported PBM binding z-score.
A: 3.59

Q: Read the entry "ACTAGTAGGCCAAGGGTCACTCAAGATTAGTCCG" and write its reported PBM binding z-score.
A: 0.602

Q: Read the entry "CGAACTAGGTCAAAGGACAGTGCAAGGCGACGTA" and write its reported PBM binding z-score.
A: 1.15

Q: Read the entry "TCGAGGAGGTTACGGGGGCATTCAGGGATGAAGA" and write its reported PBM binding z-score.
A: 2.51

Q: Read the entry "TCGAGTAGGTTCCGGGGGCATTCAGGGATGAAGA" and write its reported PBM binding z-score.
A: 1.02

Q: Read the entry "CGAACTAGTTCAAGGACAGTGAATCTCCGCACGC" and write its reported PBM binding z-score.
A: 1.78

Q: Read the entry "ATCGAAGGGTCGAAGGTGAGTATACCCACCCGAA" and write its reported PBM binding z-score.
A: 0.0916

Q: Read the entry "CAAACTAGGTCAAGAGGTCAAAGGCCGCTTCCCG" and write its reported PBM binding z-score.
A: 2.67

Q: Read the entry "ACATGTAGGTTAGGGTCATTCAGAAAGTAGGGAA" and write its reported PBM binding z-score.
A: 3.02

Q: Read the entry "ACTCGGAGGACAAAGGTGAGAGCTACGCCAGTGA" and write its reported PBM binding z-score.
A: 0.453

Q: Read the entry "ATACGTAGGTTAGGGTCATTCAGAAAGTAGGGAA" and write its reported PBM binding z-score.
A: 2.35

Q: Read the entry "CGAACTAGTTCAAAGGACAGTGAAAGGCGACGTA" and write its reported PBM binding z-score.
A: 2.02

Q: Read the entry "ATCGAAAGGTCGACGAGGTGAGAATACACCGTTT" and write its reported PBM binding z-score.
A: 1.15

Q: Read the entry "TCGAGTAGGTTACGGGGTCATTCAGGGATGAAGA" and write its reported PBM binding z-score.
A: 2.36

Q: Read the entry "AGTCAAAGTTCTTCTAGGTAACGTAAGATATGCT" and write its reported PBM binding z-score.
A: 1.41

Q: Read the entry "TCGAGTAGGTTACGTGGGCATTCAGGGATGAAGA" and write its reported PBM binding z-score.
A: 0.0477

Q: Read the entry "CCTAGTTGGTCAGGGGGTCACACACCGGATATGA" and write its reported PBM binding z-score.
A: 0.886

Q: Read the entry "TCTCGGAGGACACGAAGGTCAAAGCTTTCCAGAG" and write its reported PBM binding z-score.
A: 1.15

Q: Read the entry "GCTCGGGGGACAAGGTCAGAGCTTTGTCCGTAGA" and write its reported PBM binding z-score.
A: 1.43

Q: Read the entry "CCTACTGGGCCAAAGGTCATTGACTCCAATGCTC" and write its reported PBM binding z-score.
A: 1.6

---

# System: PPARg:RXRa 90nM:30nM, anti-RXR (NR concentration 90 nM, RXRa partner concentration 30 nM)
# Test protocol: PBM binding z-score (relative to random genomic background probes); higher = stronger binding; sequences stand for … in GC…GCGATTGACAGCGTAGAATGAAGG
Give Satisfied when the value for PBM binding z-score is at least 4. Give Not satisfied when it is less.

Worked examples follow.
AGTCAAAGTTCACTAGGTTACGTAAGATTCAGCT    Satisfied
CCCCGGAGGACAGAAGGTCAGAGCTGTCCGCTTT    Not satisfied
TCATATAGGTAATAAAGGTGAAAGTCGGCATCTA    Satisfied
TCTCGGAGGTCACGAAGGTCAGAGCTTTCCAGAG    Satisfied

// switching to the query sequence
Q: // inclusive: PBM binding z-score at least 4? input: "ACTAGGTGGTCAGCTGAGGTCACACACAATTCGG"
A: Not satisfied

---

# System: VDR homodimer (NR concentration 270 nM)
# Test protocol: PBM binding z-score (relative to random genomic background probes); higher = stronger binding; sequences stand for … in GC…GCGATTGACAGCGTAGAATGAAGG
Property label: PBM binding z-score
Respond using a number only.

A selection of reference data follows.
CTGAGTAGGTTACGAGGGGGCATTCAGTGCGAAT    3.31
CCAGAAAGGTGAAAGGTAACTCAGTCTGGTACGC    0.0179
CCTGCTAGGTCAATGGTCAGCTCAAGCAGCTCGC    0.174

Q: Read the entry "AGTCATAGTTCACTAGGTAACGTAAGATTCAGCT" and write its reported PBM binding z-score.
A: 0.797

Q: Read the entry "AGAATGGGGTTAAGATCAGGGAAACAGAATACAT" and write its reported PBM binding z-score.
A: 1.27

Q: Read the entry "CCGAGTGGGTTACGAGGGGGCATTCAGTGCGAAT" and write its reported PBM binding z-score.
A: 3.43

---

# Tested on: RARb:RXRa (NR concentration 270 nM, RXRa partner concentration 90 nM)
# Test protocol: PBM binding z-score (relative to random genomic background probes); higher = stronger binding; sequences stand for … in GC…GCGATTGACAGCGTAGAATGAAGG
Property label: PBM binding z-score
Respond using a number only.

A selection of reference data follows.
CGGAGTAGGTTACGAGGGGGCATTCAGTGCGAAT    2.54
CGAACTAGGCCACCAGGACAGTGAAGAGGTTGGA    0.821
GCTTCCGGGTCAAAGGTTATAGCATGAATAGAAT    4.45

Q: Read the entry "CAAACTAGGTCAAAGGTCAAAGACGAGCCAACCA" and write its reported PBM binding z-score.
A: 5.96

Q: Read the entry "CTCGAAAGGTCGTCCTCAGGTGAGTATACCAAAC" and write its reported PBM binding z-score.
A: 3.8

Q: Read the entry "ATACCAAGGTTATCGTGAGGTCGTTGATACTAAC" and write its reported PBM binding z-score.
A: 2.47

Q: Read the entry "CTATGTAGGTTAAGCGGGTCATTCAGTTTGAAAG" and write its reported PBM binding z-score.
A: 2.16

---

# Test system: PPARa:RXRa (NR concentration 270 nM, RXRa partner concentration 90 nM)
# Test protocol: PBM binding z-score (relative to random genomic background probes); higher = stronger binding; sequences stand for … in GC…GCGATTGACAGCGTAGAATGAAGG
Binning of PBM binding z-score into classes: low = under 4, middle = from 4 up to 5, high = 5 and over

Worked examples follow.
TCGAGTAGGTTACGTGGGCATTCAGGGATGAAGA    low
CCTACAGGGCCAAAGGTCATTGATTCCAATGCTC    high
CTATGTAGGTTAAGGGGGTGATTCAGTTTGAAAG    middle
CCGAGTATGTTACGAGGGGGCATTCAGTGCGAAT    low
AGTCAAAGTTCATCAAGGTAACGTAAGATATGCT    middle

Q: Lab note: which band did "CGTCAAAGTTCAACTAATGTAACGTAAAGCACGC" land in?
A: middle

Q: Lab note: which band did "GCTGCTAGGTCAACTGATGGTCAGCTAAAGCTCG" land in?
A: low

Q: Lab note: which band did "ATCGAATGGTCGAAGGTGAGTATACCCACCCGAA" land in?
A: low

Q: Lab note: which band did "AATACAGGGTCACTAGGCCCGAGTAGGTACGAAT" land in?
A: high

Q: Lab note: which band did "CAAACTAGGTCACGAAAGGGCAAAGTCGAATGAC" land in?
A: high

---

PBM binding z-score by entry:
# System: PPARg:RXRa DBDmut IVT, anti-RXR (DBD mutation: RXRa K156A/R161A, NR concentration 270 nM, RXRa partner concentration 90 nM)
# Test protocol: PBM binding z-score (relative to random genomic background probes); higher = stronger binding; sequences stand for … in GC…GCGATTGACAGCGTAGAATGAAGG

A selection of reference data follows.
CGAACTAGGTCAAAAGACAGTGAAAGGCGACGTA    7.84
ATATGTTGGTTAGGGTCATTCAGAAAGTAGGGAA    1.44
GGAACGGGGGCATTCGAGTTGATAGCATGGCGAT    3.24
CACACTAGGTCAAGAGGTCAAAGTCCGCTTCCCG    7.22
TCTACTTGGTCACGGAGGTCACACACGACGGGTA    3.04
ATATGTAGGGTAGGGTCATTCAGAAAGTAGGGAA    6.28
CGAACTAGCTCAAAGGACAGTGAAAGGCGACGTA    -0.134
CGAACTAGGTCAAAGGACAGTAAAAGGCGACGTA    8.07

Moving on to the next sequence.
Q: Read the entry "TCGAGTAGGTTAGGGGGGCATTCAGGGATGAAGA" and write its reported PBM binding z-score.
A: 4.38
